Where do the numbers come from? From patent US9988400B2.

biological target: HEK cells stably transfected with tetracycline inducible hNR1 and hNR2A (Homo sapiens, UniProt Q05586+Q12879); construct: expressed in transfected cells; host or cells: HEK cells, stably transfected, tetracycline/doxycycline inducible; assay: Assay 1: Cell-Based Assay, cytosolic calcium response to positive allosteric modulators (with 30 μM glycine and 300 nM L-glutamate, EC30); conditions: Table 2; cytosolic calcium response, with 30 μM glycine and 300 nM L-glutamate (EC30); — = no plateau was reached
Sequence (Q12879 23-1464, other chains not shown): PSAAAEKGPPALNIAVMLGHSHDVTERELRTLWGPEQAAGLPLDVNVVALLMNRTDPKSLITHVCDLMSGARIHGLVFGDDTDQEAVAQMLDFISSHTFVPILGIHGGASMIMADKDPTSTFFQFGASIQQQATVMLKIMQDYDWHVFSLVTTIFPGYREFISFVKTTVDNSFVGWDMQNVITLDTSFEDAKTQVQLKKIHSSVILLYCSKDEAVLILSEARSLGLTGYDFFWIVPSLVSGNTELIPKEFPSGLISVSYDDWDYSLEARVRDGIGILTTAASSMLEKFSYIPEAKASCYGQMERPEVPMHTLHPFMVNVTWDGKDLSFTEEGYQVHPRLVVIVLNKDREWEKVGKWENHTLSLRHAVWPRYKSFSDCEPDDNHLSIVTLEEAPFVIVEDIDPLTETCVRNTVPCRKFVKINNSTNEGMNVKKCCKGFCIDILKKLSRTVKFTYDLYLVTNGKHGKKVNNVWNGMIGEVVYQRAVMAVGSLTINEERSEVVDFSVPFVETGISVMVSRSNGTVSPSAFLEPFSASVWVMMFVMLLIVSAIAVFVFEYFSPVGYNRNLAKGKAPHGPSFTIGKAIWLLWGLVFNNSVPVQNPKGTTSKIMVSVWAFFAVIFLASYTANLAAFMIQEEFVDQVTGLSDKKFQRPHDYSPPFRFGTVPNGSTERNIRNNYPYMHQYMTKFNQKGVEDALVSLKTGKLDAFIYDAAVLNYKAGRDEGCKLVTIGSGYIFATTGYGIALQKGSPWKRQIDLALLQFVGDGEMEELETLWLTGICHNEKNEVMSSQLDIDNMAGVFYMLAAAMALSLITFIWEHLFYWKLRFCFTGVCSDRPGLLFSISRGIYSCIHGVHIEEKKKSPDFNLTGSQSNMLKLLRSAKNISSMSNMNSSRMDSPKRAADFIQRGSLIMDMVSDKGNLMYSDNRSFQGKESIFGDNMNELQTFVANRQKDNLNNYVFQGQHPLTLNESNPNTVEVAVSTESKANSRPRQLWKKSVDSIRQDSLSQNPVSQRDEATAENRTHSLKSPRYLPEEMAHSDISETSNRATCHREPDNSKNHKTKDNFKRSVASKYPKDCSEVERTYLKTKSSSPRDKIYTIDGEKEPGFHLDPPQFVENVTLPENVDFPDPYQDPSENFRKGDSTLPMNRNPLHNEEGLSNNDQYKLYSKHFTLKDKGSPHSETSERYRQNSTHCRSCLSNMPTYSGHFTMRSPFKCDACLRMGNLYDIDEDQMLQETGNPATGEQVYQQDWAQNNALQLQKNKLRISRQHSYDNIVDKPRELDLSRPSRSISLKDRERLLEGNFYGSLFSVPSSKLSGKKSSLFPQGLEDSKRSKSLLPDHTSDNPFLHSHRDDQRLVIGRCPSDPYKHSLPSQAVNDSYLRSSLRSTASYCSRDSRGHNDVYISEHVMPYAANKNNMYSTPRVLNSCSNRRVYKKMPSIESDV
pEC50: −log10 of the molar value.
measured-endpoint: pEC50

The following compounds have reported results that may help.
compound="CCN(Cc1cc(=O)n2c(C#N)c(C)sc2n1)c1cccc(C#N)c1 [Example 7.6]" measured_endpoint=pEC50 readout_number=5.43
compound="Cc1sc2nc(Cn3nc(C(F)(F)F)cc3C(F)(F)F)cc(=O)n2c1-c1cncnc1 [Example 15.30]" measured_endpoint=pEC50 readout_number=4.66
compound="CCN(Cc1cc(=O)n2c(-c3cccnc3F)c(C)sc2n1)c1ccc(F)cc1 [Example 5.25]" measured_endpoint=pEC50 readout_number=6.15
compound="CCN(Cc1cc(=O)n2c(N3CCCC3)c(C)sc2n1)c1ccc(F)cc1 [Example 6.3]" measured_endpoint=pEC50 readout_number=5.00

1: CCNC(=O)c1c(C)sc2nc(Cc3cc(C#N)ccc3CCF)cc(=O)n12 [Example 21.61]
2: CCNC(=O)c1c(C)sc2nc(Cc3cccc(Cl)c3F)cc(=O)n12 [Example 21.3]
Task item: Which shows the larger pEC50 value: 1 or 2 ? Could you answer with the label of the item you picked?
Reply: 2
(2: 5.12, 1: 4.48)

A: CCNC(=O)c1c(C2CC2)sc2nc(Cn3nc(C4CC4)cc3C(F)(F)F)cc(=O)n12 [Example 16.7]
B: Cc1sc2nc(Cn3nc(Cl)cc3C)cc(=O)n2c1[C@@H]1C[C@H]1CO (relative stereo) [Example 15.3]
Task item: Which shows the larger pEC50 value: A or B ? Could you answer with the label of the item you picked?
Reply: B
(B: 6.31, A: 4.44)

---

biological target: HEK cells stably transfected with tetracycline inducible hNR1 and hNR2A (Homo sapiens, UniProt Q05586+Q12879); construct: expressed in transfected cells; host or cells: HEK cells, stably transfected, tetracycline/doxycycline inducible; test: Assay 1: Cell-Based Assay, cytosolic calcium response to positive allosteric modulators (with 30 μM glycine and 300 nM L-glutamate, EC30); settings: Table 2; cytosolic calcium response, with 30 μM glycine and 300 nM L-glutamate (EC30); — = no plateau was reached
measured-endpoint: EC50 (µM)

1: Cc1sc2nc(Cn3ncc4ccccc43)cc(=O)n2c1[C@@H]1C[C@H]1CO (relative stereo) [Example 15.6]
2: Cc1cc(Cl)n(Cc2cc(=O)n3c([C@@H]4C[C@H]4CO)c(C)sc3n2)n1 (relative stereo) [Example 15.4]
Task item: Which shows the larger EC50 value: 1 or 2 ? Could you answer with the label of the item you picked?
Reply: 1

---

molecular target: HEK cells stably transfected with tetracycline inducible hNR1 and hNR2A (Homo sapiens, UniProt Q05586+Q12879); construct: expressed in transfected cells; host or cells: HEK cells, stably transfected, tetracycline/doxycycline inducible; assay: Assay 1: Cell-Based Assay, cytosolic calcium response to positive allosteric modulators (with 30 μM glycine and 300 nM L-glutamate, EC30); details: Table 2; cytosolic calcium response, with 30 μM glycine and 300 nM L-glutamate (EC30); — = no plateau was reached
measured-endpoint: EC50 (µM)

compound="Cc1sc2nc(Cn3nc(C(F)(F)F)cc3C3CC3)cc(=O)n2c1-c1cncnc1 [Example 15.29]" measured_endpoint=EC50 readout_number=7
compound="Cc1sc2nc(Cc3cccc(C(F)(F)F)c3F)cc(=O)n2c1C#N [Example 26.2]" measured_endpoint=EC50 readout_number=9
compound="CNC(=O)c1c(C)sc2nc(Cc3cccc(C#N)c3F)cc(=O)n12 [Example 21.2]" measured_endpoint=EC50 readout_number=21.6
compound="Cc1sc2nc(CN3c4ccc(F)cc4CC3C)cc(=O)n2c1-c1cncnc1 (centres unmarked) [Example 5.48]" measured_endpoint=EC50 readout_number=6.2
compound="CNC(=O)c1c(C)sc2nc(Cc3cc(C(F)(F)F)ccc3C3CC3)cc(=O)n12 [Example 21.17]" measured_endpoint=EC50 readout_number=23.7

a: Cc1sc2nc(COc3ccc(Cl)cc3)cc(=O)n2c1[C@@H]1C[C@H]1CO (relative stereo) [Example 4.8]
b: CC(=O)c1c(C)sc2nc(Cn3nc(C4CC4)cc3C(F)(F)F)cc(=O)n12 [Example 18.3]
Task item: Which shows the larger EC50 value: a or b ? Could you answer with the label of the item you picked?
Reply: b

---

target: HEK cells stably transfected with tetracycline inducible hNR1 and hNR2A (Homo sapiens, UniProt Q05586+Q12879); construct: expressed in transfected cells; host or cells: HEK cells, stably transfected, tetracycline/doxycycline inducible; assay: Assay 1: Cell-Based Assay, cytosolic calcium response to positive allosteric modulators (with 30 μM glycine and 300 nM L-glutamate, EC30); conditions: Table 3; cytosolic calcium response, with 30 μM glycine and 300 nM L-glutamate (EC30); — = no plateau was reached
measured-endpoint: EC50 (µM)

The following compounds have reported results that may help.
compound="CCNC(=O)c1c(C)sc2nc(Oc3cccc(C#N)c3F)cc(=O)n12 [compound 68]" measured_endpoint=EC50 readout_number=30.4
compound="CC1CC1c1c(C(F)(F)F)sc2nc(Cc3cccc(C#N)c3F)cc(=O)n12 (stereo not drawn) [compound 84]" measured_endpoint=EC50 readout_number=11.2
compound="CCNC(=O)c1c(C)sc2nc(Cc3cccc(Cl)c3F)c(F)c(=O)n12 [compound 8]" measured_endpoint=EC50 readout_number=2.55
compound="Cc1sc2nc(Cn3nc(C(F)(F)F)cc3Cl)cc(=O)n2c1C1CC1CO (single isomer, unassigned) [compound 136]" measured_endpoint=EC50 readout_number=0.0391
compound="CNC(=O)c1c(C)sc2nc(Oc3cccc(C(F)(F)F)c3F)cc(=O)n12 [compound 59]" measured_endpoint=EC50 readout_number=8.22
compound="Cc1sc2nc(Cc3cccc(C(F)(F)F)c3F)cc(=O)n2c1C1CC1O (stereo not drawn) [compound 100]" measured_endpoint=EC50 readout_number=11.6
compound="CCNC(=O)c1c(C(F)(F)F)sc2nc(Cc3cccc(C(F)(F)F)c3F)cc(=O)n12 [compound 40]" measured_endpoint=EC50 readout_number=1.32
compound="N#Cc1cccc(Cc2cc(=O)n3c(C4CC4C(F)(F)F)c(Cl)sc3n2)c1F (stereo not drawn) [compound 74]" measured_endpoint=EC50 readout_number=0.507

a: Cc1sc2nc(Cn3nc(Cl)cc3C(F)(F)F)cc(=O)n2c1C1CC1 [compound 117]
b: Cc1sc2nc(Cn3nc(C(F)(F)F)cc3Cl)cc(=O)n2c1Cn1cccn1 [compound 186]
c: CCNC(=O)c1c(C)sc2nc(Cn3nc(C(F)(F)F)cc3C3CC3)cc(=O)n12 [compound 76]
d: Cc1sc2nc(Cc3cccc(C(F)(F)F)c3F)cc(=O)n2c1Cc1ncc[nH]1 [compound 81]
Task item: Sort (4 compounds) by EC50: min first. Provide your answer as the labels ordered per the instruction.
Reply: c, a, b, d
(c: 0.436 µM, a: 1.03 µM, b: 3.85 µM, d: 52 µM)

P: CNC(=O)c1c(C(F)(F)F)sc2nc(Cc3cccc(C#N)c3F)cc(=O)n12 [compound 70]
Q: CCNC(=O)c1c(C)sc2nc(Cc3cccc(C(F)(F)F)c3F)c(F)c(=O)n12 [compound 13]
R: Cc1sc2nc(Cn3nc(C(F)(F)F)cc3Cl)cc(=O)n2c1C(=O)C(F)(F)F [compound 198]
S: Cc1sc2nc(Cn3nc(C(F)(F)F)cc3Br)cc(=O)n2c1C1CC1C#N (stereo not drawn) [compound 234]
T: Cc1sc2nc(Cc3nc(C(F)(F)F)cs3)cc(=O)n2c1C1CC1CO (stereo not drawn) [compound 24]
Task item: Sort (5 compounds) by EC50: min first. Provide your answer as the labels ordered per the instruction.
Reply: S, R, Q, T, P

P: CC1CC1c1c(Cl)sc2nc(Cc3cccc(C#N)c3F)cc(=O)n12 (stereo not drawn) [compound 85]
Q: O=c1cc(Cn2nc(C(F)(F)F)cc2Cl)nc2sc(C(F)(F)F)c(-c3cncnc3)n12 [compound 171]
Task item: Which shows the larger EC50 value: P or Q ? Could you answer with the label of the item you picked?
Reply: P
(P: 2.39 µM, Q: 1.21 µM)

---

biological target: HEK cells stably transfected with tetracycline inducible hNR1 and hNR2A (Homo sapiens, UniProt Q05586+Q12879); construct: expressed in transfected cells; host or cells: HEK cells, stably transfected, tetracycline/doxycycline inducible; assay: Assay 1: Cell-Based Assay, cytosolic calcium response to positive allosteric modulators (with 30 μM glycine and 300 nM L-glutamate, EC30); conditions: Table 3; cytosolic calcium response, with 30 μM glycine and 300 nM L-glutamate (EC30); — = no plateau was reached
pEC50: −log10 of the molar value.
measured-endpoint: pEC50

The following compounds have reported results that may help.
substance_smiles=CCc1sc2nc(Cc3cccc(C(F)(F)F)c3F)cc(=O)n2c1C(=O)NC measured_endpoint=pEC50 readout_number=5.74
substance_smiles=CCNC(=O)c1c(C(F)F)sc2nc(Cn3nc(Cl)cc3C(F)(F)F)cc(=O)n12 measured_endpoint=pEC50 readout_number=6.13
substance_smiles=CC(=O)c1c(C(F)(F)F)sc2nc(Cn3nc(Cl)cc3C(F)(F)F)cc(=O)n12 measured_endpoint=pEC50 readout_number=5.28

I: CNC(=O)c1c(C(F)(F)F)sc2nc(Cc3cccc(Cl)c3F)cc(=O)n12
II: CCNC(=O)c1c(C)sc2nc(Cn3nc(C4CC4)cc3Cl)cc(=O)n12
III: CCc1sc2nc(Cn3nc(C(F)(F)F)cc3Cl)cc(=O)n2c1C(C)=O
IV: CNC(=O)c1c(C)sc2nc(Cc3cccc(C4CC4)c3F)c(F)c(=O)n12
V: COc1sc2nc(Cn3nc(C(F)(F)F)cc3Cl)cc(=O)n2c1-c1cccnc1
Task item: Sort (5 compounds) by pEC50: min first. Provide your answer as the labels ordered per the instruction.
Reply: I, V, II, IV, III
